Entry source: PubChem BioAssay

- PROTOCOL DESCRIPTION: P. aeruginosa biofilm formation inhibitors, primary screen, strain PAO1, LB-PBS medium, absorbance 600 nm (AID 1176); further: test concentration not given here
- EXPERIMENTAL CONDITIONS: P. aeruginosa PAO1 growth/biofilm, A600, 12 h; higher = more signal
TEST READOUT: z-score
Would you mind answering with just the numeric figure?

Below are worked cases with known answers.
Request: If you can, please state the reported z-score value of "O=C(NCc1ccccc1)c1ccc(Br)cc1[N+](=O)[O-]" .
Result: -0.131

Request: What z-score value was documented for this compound, "COCCOC(=O)N1C(=O)[C@@]2(c3cc(C#CC4=CCCCC4)ccc31)[C@H](c1ccc(O)cc1)N1[C@H](c3ccccc3)[C@H](c3ccccc3)OC(=O)[C@H]1[C@@H]2C(=O)N1CCCCCCC1" ?
Result: 1.35

Request: What measured z-score goes with "Cc1ccc(S[C@]2(C(=O)NC(C)C)CC(=O)N(Cc3cc(C(F)(F)F)cc(C(F)(F)F)c3)[C@@H]2c2ccc(CO)cc2I)cc1" ?
Result: 0.447

Further cases:
Request: Name the reported z-score value associated with the compound C=CCC(OC(C)=O)[C@@H]1[C@@H](N(Cc2cccc3ccccc23)C(=O)c2ccc(C)cc2)c2cc(OCCCO)ccc2N1C(=O)c1ccc(-c2ccccc2)cc1 (stereo not given in full)
Result: -0.0178

Request: Name the recorded z-score for C=C(C)[C@@H]1CC=C(C(O)C2C=CC3C(=O)NC(=O)C3N2Nc2ccccn2)CC1 (stereo not given in full) .
Result: 1.99

---

- PROTOCOL DESCRIPTION: adipocyte viability effects, profiling panel, cell-based, 3T3-L1 adipocytes, calcein-AM fluorescence, 48 h, basal (AID 1163); further: test concentration not given here
- EXPERIMENTAL CONDITIONS: 3T3-L1 adipocytes viability, higher = more signal
TEST READOUT: z-score
Could you keep your reply to the number by itself?

Use these answered entries as a reference point.
Request: Dear colleague, I am looking for the recorded z-score of the following molecule: "[N-]=[N+]=Nc1ccccc1C[C@@]1(C(=O)N2CCOCC2)N=C(c2ccc(OCCCO)cc2)O[C@@H]1c1ccccc1N=[N+]=[N-]"
Result: 0.271

Request: Which z-score reading was recorded for the molecule "C=CC[C@]1(C(=O)O)N=C(c2ccc(OCCCO)cc2)O[C@H]1c1ccccc1N=[N+]=[N-]" ?
Result: 0.722

Request: Would you kindly share the measured z-score for "CO[C@H]1O[C@H](CO)[C@@H](OC(=O)CCc2ccccc2)[C@@H]2OC(=O)[C@H](Cc3cccc(Br)c3)C/C=C/C[C@@H](Cc3cccc(Br)c3)C(=O)O[C@@H]12" ?
Result: 1.22

Others:
Request: Given the entry "COC(=O)C(CC#Cc1ccc2c(c1)[C@]1(C(=O)N2)[C@H](C(=O)N2CCCCCCC2)[C@H]2C(=O)O[C@H](c3ccccc3)[C@H](c3ccccc3)N2[C@@H]1c1ccc(O)cc1)C(=O)OC" , report its measured z-score.
Result: 1.27

Request: // lookup z-score for "CC(C)(C)OC(=O)CC[C@]1(C(=O)N2CCCCC2)N=C(c2ccc(OCCCO)cc2)O[C@H]1c1ccccc1"
Result: 1.24

Request: For the molecule shown here, "CO[C@@H]1COC(=O)[C@@H]2CCCN2C(=O)CC=C[C@@H](C)[C@H](OC)COC(=O)[C@@H]2CCCN2C(=O)CC=C[C@H]1C" , give the reported z-score.
Result: 0.185

Request: Need z-score, item C=CCN(C(=O)C1N(c2ccc(CCO)cc2)C(=O)C2C(C(=O)O)C3C=CC21O3)C(C)(C)C (configuration not stated)
Result: 1.86

---

Below, each entry is listed with its recorded z-score.
- PROTOCOL DESCRIPTION: RPMI8226 myeloma cell viability, profiling panel, resazurin fluorescence, basal, 24 h, PK04 Diversity Set (AID 1180);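 further: RPMI8826 multiple myeloma cell line at 5000 cells per well; test concentration not given here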
- EXPERIMENTAL CONDITIONS: higher = more signal
No unit in the answer, please; the number alone is enough.

// worked examples, z-score included
Request: For the molecule shown here, "O=C(NCC(F)(F)F)[C@@H]1c2ccccc2C(=O)N(Cc2ccccc2Cl)[C@H]1c1ccc(CO)cc1" , give the reported z-score.
Result: 0.641

Request: Item under review: "CO[C@H]1COC(=O)[C@H](C)COC(=O)[C@H](Cc2ccccc2)NC(=O)CC=C[C@H]1C" . Reported z-score?
Result: 0.254

Request: Which value of z-score has been reported for "CC/C=C/C(=O)N(C[C@@H]1CCCO1)[C@@H]1CC(C(=O)NCCO)=C[C@H](Oc2c(I)cc(CO)cc2OC)[C@H]1O" in the records?
Result: 0.209

Attention now shifts to the item below.
Request: Which z-score value is on record for "C=CCc1cccc([C@H]2N[C@H](C(=O)O)CC[C@@H]2C)c1" ?
Result: 1.02

---

- PROTOCOL DESCRIPTION: MM1S cell viability effects, profiling panel, calcein-AM fluorescence, 48 h, basal (AID 1165);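 further: viability of MM1S multiple myeloma cells under basal unstimulated conditions; test concentration not given here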
- EXPERIMENTAL CONDITIONS: higher = more signal
Below: a set of entries, each annotated with reported z-score.

Request: Recorded z-score of "COc1cc([C@@H]2N[C@H](C(=O)O)Cc3c2[nH]c2ccccc32)cc(OC)c1OC" , please.
Result: -0.0434

Request: Return reported z-score; argument: "C=C(COC)C(=O)CC[C@H](OC(=O)c1ccccc1-c1ccccc1C(=O)O)c1cccc(OCCO)c1"
Result: -1.12

Request: Report z-score for "CC(=O)NCCCC[C@@H]1NC(=O)[C@@H]2C[C@H](C(=O)NCCCCCNC(=O)CS)[C@H](c3ccc(O)cc3)N2C1=O" please.
Result: 0.372

Request: Which z-score is reported for this molecule? "CO[C@H]1COC(=O)[C@@H](C)COC(=O)[C@H](Cc2ccccc2)NC(=O)CC=C[C@H]1C"
Result: -0.0069

Request: Requested field: z-score. Item: "C=C(/C(=C/C[C@@H](OC(=O)c1ccncc1)c1ccc(CO)o1)c1cnc2ccccc2c1)C(C)C"
Result: -1.24

Request: # z-score lookup, item O=C1C2C=CC(C(O)Cc3ccccc3)N(Nc3ccc([N+](=O)[O-])cc3)C2C(=O)N1c1ccccc1 (centres undefined)
Result: 0.568

Request: Entry "O=C/C=C/c1ccccc1Cl" has what z-score?
Result: -0.882

Request: What z-score value was documented for this molecule, "C[C@H]1COC(=O)[C@@H]2CCCN2C(=O)[C@@H](C)COC(=O)[C@@H]2CCCN2C1=O" ?
Result: 0.323

Please look at the following molecule next.
Request: What measured z-score goes with "CCCC[C@@H]1C[C@H]1[C@@H](NC(=O)c1ccccc1)c1ccccc1C(F)(F)F" ?
Result: -1.69

---

- TARGET OR TEST SYSTEM: Left-right determination factor 2 (Homo sapiens) (UniProt O00292)
- Sequence (O00292 whole entry, looked up): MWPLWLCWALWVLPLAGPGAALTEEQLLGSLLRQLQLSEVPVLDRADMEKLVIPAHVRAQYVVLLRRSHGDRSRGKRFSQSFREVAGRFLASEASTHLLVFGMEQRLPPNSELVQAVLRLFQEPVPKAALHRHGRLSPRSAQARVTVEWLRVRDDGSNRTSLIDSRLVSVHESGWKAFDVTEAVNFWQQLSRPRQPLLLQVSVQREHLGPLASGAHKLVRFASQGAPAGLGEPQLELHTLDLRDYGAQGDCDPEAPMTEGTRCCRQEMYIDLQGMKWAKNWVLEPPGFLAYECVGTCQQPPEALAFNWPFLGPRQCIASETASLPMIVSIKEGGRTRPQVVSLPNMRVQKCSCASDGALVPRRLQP
- PROTOCOL DESCRIPTION: LEFTY2 binders on small-molecule microarrays, primary screen, biochemical, small-molecule microarray, 635 nm fluorescence scan (AID 1110)
- EXPERIMENTAL CONDITIONS: LEFTY2 binding, higher = more signal
TEST READOUT: composite z-score
When you answer, write just the number.

Request: Record CC(C)[C@H]1NC(=O)[C@@]23C(=O)N[C@@H](Cc4ccccc4)C2[C@H](C)[C@@]2(C)O[C@H]2C3/C=C/C/C=C\CNC(=O)[C@H](C)NC1=O (stereo partly drawn) : what is its composite z-score with Left-right determination factor 2 (Homo sapiens) (UniProt O00292)?
Result: -0.796

Request: Form field: composite z-score recorded for "O=C(CS)NCCCCCCNC(=O)[C@@H]1C[C@@H]2C(=O)N[C@@H](Cc3ccccc3)C(=O)N2[C@@H]1c1ccc(O)cc1" with Left-right determination factor 2 (Homo sapiens) (UniProt O00292) (enter value)
Result: 0.621

Request: Lab request: please report composite z-score under test system Left-right determination factor 2 (Homo sapiens) (UniProt O00292) for "CC(C)[Si](OCCCNS(=O)(=O)c1ccc(Br)cc1)(C(C)C)C(C)C"
Result: 0.76

***
Request: Any idea what composite z-score came out for "CC(=O)NCCCC[C@@H]1NC(=O)[C@H]2C[C@@H](C(=O)NCCCCCCN(C)C)[C@@H](c3cccc(OCCO)c3)N2C1=O" on Left-right determination factor 2 (Homo sapiens) (UniProt O00292)?
Result: 1.45

Request: Report composite z-score for "Cc1ccc(S[C@]2(C(=O)NC3CC3)CC(=O)N(Cc3cc(C(F)(F)F)cc(C(F)(F)F)c3)[C@@H]2c2ccc(CO)cc2)cc1" tested on Left-right determination factor 2 (Homo sapiens) (UniProt O00292).
Result: 0.267

Request: Item: "COCCOC(=O)N1C(=O)[C@@]2(c3cc(C#CCCO)ccc31)[C@H](c1ccc(OCCO)cc1)N1[C@H](c3ccccc3)[C@H](c3ccccc3)OC(=O)[C@H]1[C@@H]2C(=O)NC[C@H](O)c1ccccc1" Test system: Left-right determination factor 2 (Homo sapiens) (UniProt O00292) Read-out: composite z-score Value: ?
Result: 0.795
